In this section, each of the compounds is paired with its reported pEC50.
target: von Hippel-Lindau disease tumor suppressor/Histone deacetylase 4 (Homo sapiens, UniProt P40337+P56524); experiment: Protac activity at VHL/HDAC4 in human Jurkat E6.1 cells assessed as induction of HDAC4 degradation incubated for 24 hrs by ELISA-based MSD electrochemiluminescence assay; type: cell-based
Sequence (P56524 whole entry): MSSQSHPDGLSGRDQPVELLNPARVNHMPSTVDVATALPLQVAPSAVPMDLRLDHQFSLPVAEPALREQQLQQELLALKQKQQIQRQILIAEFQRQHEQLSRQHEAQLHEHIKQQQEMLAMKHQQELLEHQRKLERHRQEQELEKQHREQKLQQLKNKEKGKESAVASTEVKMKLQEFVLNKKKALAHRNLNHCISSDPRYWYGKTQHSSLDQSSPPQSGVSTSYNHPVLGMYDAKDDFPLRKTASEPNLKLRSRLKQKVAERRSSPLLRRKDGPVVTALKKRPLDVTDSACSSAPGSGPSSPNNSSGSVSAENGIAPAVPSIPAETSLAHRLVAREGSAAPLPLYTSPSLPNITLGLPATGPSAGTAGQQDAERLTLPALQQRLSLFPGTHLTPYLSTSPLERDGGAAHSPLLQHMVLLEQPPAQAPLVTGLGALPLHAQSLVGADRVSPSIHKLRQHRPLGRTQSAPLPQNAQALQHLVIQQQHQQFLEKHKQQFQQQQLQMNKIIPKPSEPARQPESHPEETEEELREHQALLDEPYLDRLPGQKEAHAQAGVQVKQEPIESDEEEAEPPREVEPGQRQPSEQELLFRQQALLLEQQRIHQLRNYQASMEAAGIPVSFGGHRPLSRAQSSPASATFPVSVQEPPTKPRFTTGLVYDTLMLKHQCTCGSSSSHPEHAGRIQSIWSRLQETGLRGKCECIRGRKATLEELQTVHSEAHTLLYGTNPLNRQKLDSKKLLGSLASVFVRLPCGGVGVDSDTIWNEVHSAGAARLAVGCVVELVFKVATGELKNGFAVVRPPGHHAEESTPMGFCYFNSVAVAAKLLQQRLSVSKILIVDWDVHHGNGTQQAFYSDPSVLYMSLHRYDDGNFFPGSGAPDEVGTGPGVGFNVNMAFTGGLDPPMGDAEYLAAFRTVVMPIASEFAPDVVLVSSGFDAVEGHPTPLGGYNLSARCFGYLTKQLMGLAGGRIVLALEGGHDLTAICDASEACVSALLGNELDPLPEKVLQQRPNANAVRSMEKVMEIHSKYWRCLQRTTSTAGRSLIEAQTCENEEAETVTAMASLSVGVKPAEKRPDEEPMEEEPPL
Sequence (P40337 whole entry): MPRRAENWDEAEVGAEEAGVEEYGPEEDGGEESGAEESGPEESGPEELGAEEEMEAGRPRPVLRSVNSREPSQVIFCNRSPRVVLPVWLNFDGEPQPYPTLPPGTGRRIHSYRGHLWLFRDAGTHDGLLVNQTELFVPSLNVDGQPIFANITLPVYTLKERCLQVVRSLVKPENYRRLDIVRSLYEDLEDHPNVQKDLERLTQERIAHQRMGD
Scale note: pEC50 = -log10(concentration in M).

[[record]]
chemicalsmiles = "CCCN(CCCCOCCOCCOCCOCC(=O)N[C@H](C(=O)N1C[C@H](O)C[C@H]1C(=O)NCc1ccc(-c2scnc2C)cc1)C(C)(C)C)C[C@@H](C)NC(=O)c1ccc(-c2noc(C(F)(F)F)n2)cc1"
recordedendpoint = "pEC50"
experimentalvalue = 8.40

[[record]]
chemicalsmiles = "CCCN(CCCCOCCOCCOCCOCCOCC(=O)N[C@H](C(=O)N1C[C@H](O)C[C@H]1C(=O)NCc1ccc(-c2scnc2C)cc1)C(C)(C)C)C[C@@H](C)NC(=O)c1ccc(-c2noc(C(F)(F)F)n2)cc1"
recordedendpoint = "pEC50"
experimentalvalue = 8.40


# input for lookup
[in] State its pEC50: CCCN(CCCCOCCOCCOCC(=O)N[C@H](C(=O)N1C[C@H](O)C[C@H]1C(=O)NCc1ccc(-c2scnc2C)cc1)C(C)(C)C)C[C@@H](C)NC(=O)c1ccc(-c2noc(C(F)(F)F)n2)cc1
[out] 8.52
